Every entry's value here was drawn from patent US20180244785A1.

Target Of Assay: T1, 6His-Fc-FGFR4 (human, UniProt P22455 144-369)
T1 construct: not shown: 6His tag and Fc as named in '6His-Fc-FGFR'
T1 sequence: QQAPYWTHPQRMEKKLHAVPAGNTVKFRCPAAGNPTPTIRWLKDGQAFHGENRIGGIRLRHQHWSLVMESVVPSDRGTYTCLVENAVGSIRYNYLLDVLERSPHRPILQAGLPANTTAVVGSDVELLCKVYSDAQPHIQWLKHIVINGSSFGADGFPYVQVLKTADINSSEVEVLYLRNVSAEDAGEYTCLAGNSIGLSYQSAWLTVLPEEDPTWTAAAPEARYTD
Test Details: competition ELISA, blocks 6His-Fc-FGFR4 binding to coated FGF2
pIC50: −log10 of the molar value.
Below: a set of entries, each annotated with reported pIC50.

| Binder | pIC50 |
| --- | --- |
| Ab34 (antibody, human IgG2, kappa, V domains shown, format in the assays not spelled out) VH: EVQLLESGGGVVQPGRSLRLSCAASGFTFSSYAMHWVRQAPGKGLEWVAVISYDGSNKYYADSVKGRFTISRDNSKNTLSLQMNSLRVEDTAIYYCVRGAGRGYTRGPDGFDIWGQGTMVTVSS VL: DIVMTQTPLSLSVTPGQPASISCTSSRSLLHSDGKTYVYWYVQKSGQPPQLLIYELSNRFSGVPDRFSGSGSRTDFTLKISRVEAEDVGVYYCMQYVEAPLTFGGGTKVEIKR | 7.84 |
| Ab70 (antibody, human IgG2, kappa, V domains shown, format in the assays not spelled out) VH: EVQLLESGGGVVQPGRSLRLSCAASGFTFSSYAMHWVRQAPGKGLEWVAVISYDGSNKYYADSVKGRFTISRDNSKNTLSLQMNSLRVEDTAIYYCVRGAGQGYPYGPDGFDIWGQGTMVTVSS VL: DIVMTQTPLSLSVTPGQPASISCKSSRSLLHSDGKTYVYWYVQKSGQPPQLLIYELSNRFSGVPDRFSGSGSRTDFTLKISRVEAEDVGVYYCMQYIEAPLTFGGGTKVEIKR | 7.70 |
